System: Wnt5a (protein binding on small-molecule microarray)
assayProcedure: Wnt5a binders on small-molecule microarray, primary screen, biophysical, 635/667 nm fluorescence (AID 1142);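 also: fluorescence read at 667 nm with signal to noise per printed feature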
assayContext: 635 nm fluorescence, higher = more signal
Hi there, I'd appreciate the recorded composite z-score for every entry that follows.
Form field (numeric): enter value without unit.

Reported composite z-score for Wnt5a (protein binding on small-molecule microarray), given "CCc1cc2c(nc1CC)CCN(CCC(C)=NOC[C@@H](O)COCc1ccco1)C2" ? 0.391

Can you check CC(C)c1ccc(NN2C(C(O)c3ccc4c(c3)OCO4)C=CC3C(=O)N(c4ccccc4)C(=O)C32)cc1 (stereo not drawn) next? 0.268

Can you check "CC(C)[C@H](NC(=O)OC(C)(C)C)[C@@H](O)CC(=O)OC(C)(C)C" next? -0.417

Can you check "O=C1C[C@@H](O)[C@@H](O)[C@@H]2[C@@H]3C(=O)N(C4CCCCC4)C(=O)[C@@H]3CC[C@H]12" next? 0.0832

Can you check "COC(=O)[C@H](C)NC(=O)[C@@H](C)CO" next? 0.174

Can you check "C[C@@H](c1ccccc1)N1C(=O)[C@H]2[C@H]3[C@H](O)C=CC(=O)[C@@H]3CC[C@H]2C1=O" next? -0.143

Can you check "O=C1C[C@@H](O)[C@@H](O)[C@@H]2[C@@H]3C(=O)N(Cc4ccc5c(c4)OCO5)C(=O)[C@@H]3CC[C@@H]12" next? 0.0765

Can you check "CCN1C(=O)[C@H]2[C@H]3[C@H](O)[C@H](O)CC(=NOCc4ccccc4)[C@@H]3CC[C@H]2C1=O" next? -0.0713

====

targetUnderTest: Epidermal growth factor receptor (Homo sapiens)
assayProcedure: EGFR binders on small-molecule microarrays, primary screen, biochemical, small-molecule microarray, 635 nm fluorescence (AID 1104);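 also: score merges 667 nm emission intensity with spot signal to noise over triplicate slides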
assayContext: EGFR binding, higher = more signal
quantityName: composite z-score
Form field (numeric): enter value without unit.

I am curious: what composite z-score value has been reported for "O=C1C[C@@H](O)[C@@H](O)[C@@H]2[C@@H]3C(=O)N(c4ccc(F)cc4F)C(=O)[C@@H]3CC[C@@H]12" ? 0.463

Can you check "CC(C)OC(=O)C=C1C[C@@H](c2ccc(C#N)cc2)O[C@@H](c2ccc(C#N)cc2)O1" next? 0.87

Can you check CCOC(=O)[C@H](Cc1ccccc1)NC(=O)CCC1CC(OC(=O)NCc2ccc3c(c2)OCO3)CC2(CCCC(COC(=O)NCc3ccccc3)O2)O1 (some centres not stated) next? 0.361

Can you check "CC(C)CON=C1C[C@@H](O)[C@@H](O)[C@@H]2[C@@H]3C(=O)N([C@@H](C)c4ccccc4)C(=O)[C@@H]3CC[C@H]12" next? 0.39

Can you check "CCOC(=O)C[C@H]1[C@H](OC(=O)c2cc3ccccc3oc2=O)[C@@H](NC(=O)c2ccc3ccccc3n2)c2cc(OCCCO)ccc2N1C(=O)c1ccccc1" next? 0.344

Can you check CS(=O)(=O)CCOC(=O)C1=CC(CCCO)=CC(c2cccs2)N(Cc2cccc(OC(F)(F)F)c2)C=C1C(=O)OCCS(C)(=O)=O (configuration not stated) next? -0.37

Can you check "COCCCNC(=O)[C@]1(CCC(=O)OC(C)(C)C)N=C(c2ccc(OCCCO)cc2)O[C@@H]1c1ccccc1N=[N+]=[N-]" next? 0.287
